Molecular target: AR protein (Homo sapiens, UniProt P10275, T878A)
Construct: host or cells: LNCaP FGC
Sequence (P10275 whole entry T878A): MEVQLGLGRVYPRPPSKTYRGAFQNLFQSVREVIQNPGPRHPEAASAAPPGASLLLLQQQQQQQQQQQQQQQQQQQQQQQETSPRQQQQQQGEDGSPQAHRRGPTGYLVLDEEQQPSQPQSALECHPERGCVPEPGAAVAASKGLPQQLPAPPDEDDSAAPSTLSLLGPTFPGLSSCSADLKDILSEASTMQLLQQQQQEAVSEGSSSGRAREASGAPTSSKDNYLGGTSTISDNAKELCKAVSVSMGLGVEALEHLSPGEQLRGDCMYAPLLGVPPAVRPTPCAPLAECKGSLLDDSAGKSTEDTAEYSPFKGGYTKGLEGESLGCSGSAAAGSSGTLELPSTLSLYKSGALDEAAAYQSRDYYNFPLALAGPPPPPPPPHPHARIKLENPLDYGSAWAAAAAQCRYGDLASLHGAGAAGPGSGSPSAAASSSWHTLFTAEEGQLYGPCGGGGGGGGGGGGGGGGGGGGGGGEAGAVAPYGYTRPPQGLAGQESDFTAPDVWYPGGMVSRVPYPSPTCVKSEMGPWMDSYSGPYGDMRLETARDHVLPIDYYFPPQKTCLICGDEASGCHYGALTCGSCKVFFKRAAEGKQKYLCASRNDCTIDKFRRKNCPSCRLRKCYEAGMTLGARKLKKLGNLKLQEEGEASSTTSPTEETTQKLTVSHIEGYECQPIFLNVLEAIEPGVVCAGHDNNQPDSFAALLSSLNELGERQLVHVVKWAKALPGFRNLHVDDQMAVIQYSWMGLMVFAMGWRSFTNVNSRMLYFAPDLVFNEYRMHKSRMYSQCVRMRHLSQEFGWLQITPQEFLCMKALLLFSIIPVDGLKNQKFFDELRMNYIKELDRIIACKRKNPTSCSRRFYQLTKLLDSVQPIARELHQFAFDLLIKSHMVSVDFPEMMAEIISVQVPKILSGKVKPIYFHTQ
Test: AR protein degradation in LNCaP cells (Western blot)
Type: cell-based
Details: 10 nM, 8 hours
quantity: percent AR protein degradation at a fixed concentration at 0.01 µM (%)
Quick note: give the figure in %, leave out the unit.

## Task Given the entry COc1cc(O[C@H]2CC[C@H](NC(=O)c3ccc(N4CCC(N5CCC6(CC5)COc5cc7c(cc56)n(C)c(=O)n7C5CCC(=O)NC5=O)CC4)nn3)CC2)ccc1C#N (stereo partly drawn) , report its measured percent AR protein degradation at a fixed concentration at 0.01 µM.
## Result 43

## Task Given the entry COc1cc(O[C@H]2CC[C@H](NC(=O)c3ccc(N4CCC(CN5CCC6(CC5)COc5c6ccc6c5n(C)c(=O)n6C5CCC(=O)NC5=O)CC4)nn3)CC2)ccc1C#N (stereo partly drawn) , report its measured percent AR protein degradation at a fixed concentration at 0.01 µM.
## Result 48

## Task Given the entry C[C@H]1CC2(CCN(c3ccc(N4CCC(CN5CCC6(CCc7cc(C(=O)N[C@H]8CCC(=O)NC8=O)c(F)cc7O6)CC5)CC4)cc3)CC2)CN1c1ccc(C#N)c(Cl)c1 , report its measured percent AR protein degradation at a fixed concentration at 0.01 µM.
## Result 44

## Task Given the entry Cn1c(=O)n(C2CCC(=O)NC2=O)c2ccc3c(c21)OCC31CCN(C2CC3(CCN(c4ccc(C(=O)N[C@H]5CC[C@H](Oc6ccc(C#N)c(Cl)c6)CC5)nn4)CC3)C2)CC1 (stereo partly drawn) , report its measured percent AR protein degradation at a fixed concentration at 0.01 µM.
## Result 58

## Task Given the entry C[C@H]1CC2(CCN(c3ccc(C(=O)N4CCC(CN5CCC6(CCc7cc(C(=O)N[C@H]8CCC(=O)NC8=O)c(F)cc7O6)CC5)CC4)cc3)CC2)CN1c1ccc(C#N)c(Cl)c1 , report its measured percent AR protein degradation at a fixed concentration at 0.01 µM.
## Result 61

## Task Given the entry COc1cc(O[C@H]2C(C)(C)[C@H](NC(=O)c3ccc(N4CCC(F)(CN5CCC6(CC5)COc5cc7c(cc56)n(C)c(=O)n7C5CCC(=O)NC5=O)CC4)cc3)C2(C)C)ccc1C#N (stereo partly drawn) , report its measured percent AR protein degradation at a fixed concentration at 0.01 µM.
## Result 32

----------
Molecular target: ERα (Homo sapiens)
Sequence (P03372 whole entry): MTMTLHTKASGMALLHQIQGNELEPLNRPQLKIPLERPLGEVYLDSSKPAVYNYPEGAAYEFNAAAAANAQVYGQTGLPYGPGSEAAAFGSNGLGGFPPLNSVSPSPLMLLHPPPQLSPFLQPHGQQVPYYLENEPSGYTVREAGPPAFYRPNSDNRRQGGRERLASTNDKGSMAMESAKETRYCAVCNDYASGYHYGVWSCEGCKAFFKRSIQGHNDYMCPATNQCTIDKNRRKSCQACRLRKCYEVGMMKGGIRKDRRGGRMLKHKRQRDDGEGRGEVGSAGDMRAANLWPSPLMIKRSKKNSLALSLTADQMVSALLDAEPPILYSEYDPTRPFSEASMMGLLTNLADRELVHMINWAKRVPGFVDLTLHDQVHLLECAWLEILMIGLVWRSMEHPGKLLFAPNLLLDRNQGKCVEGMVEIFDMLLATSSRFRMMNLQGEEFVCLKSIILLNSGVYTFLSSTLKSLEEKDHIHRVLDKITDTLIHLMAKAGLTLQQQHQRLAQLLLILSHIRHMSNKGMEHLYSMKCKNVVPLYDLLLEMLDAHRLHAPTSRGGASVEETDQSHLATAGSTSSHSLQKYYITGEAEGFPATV
Test: ERα degradation in MCF-7 cells (Western blot)
Assay type: cell-based
Set-up: host or cells: MCF-7
Details: 1nM, 4 hours
Experimental: Test Example 4 Effect of PROTAC Compounds Disclosed in the Present Invention on ERα Degradation in MCF-7 Cells MCF-7 (ATCC) cells were cultured in DMEM medium (11995-065, Gibco) containing 10% FBS (10099141C, Gibco) at 37°C and 5% CO2 until they entered the logarithmic growth phase. MCF-7 cells were plated at a density of 3×10^5 cells/well in a 6-well plate and incubated at 37°C, 5% CO2 for 24 hours. […] The supernatant was carefully collected and analyzed for ERα protein levels by immunoblotting. […]
Each entry below lists one item and its recorded Degradation rate of ERα in MCF-7 cells (%) value.
Quick note: give the figure in %, leave out the unit.

Cn1c(=O)n(C2CCC(=O)NC2=O)c2cc3c(cc21)C1(CCN(C2CC4(CCN(c5ccc([C@@H]6c7ccc(O)cc7CC[C@@H]6c6ccccc6)cc5)CC4)C2)CC1)CO3 (some centres unmarked)
-9
O=C1CCC(N2Cc3c(ccc4c3OCC43CCC4(CCN(CC5CCN(c6ccc([C@@H]7c8ccc(O)cc8CC[C@@H]7c7ccccc7)cc6)CC5)CC4)CC3)C2=O)C(=O)N1 (some centres unmarked)
19
CN(c1ccc2c(c1)OCC21CCN(C[C@H]2CC[C@@H](OC3CCN(c4ccc([C@@H]5c6ccc(O)cc6CC[C@@H]5c5ccccc5)cc4)CC3)CC2)CC1)C1CCC(=O)NC1=O (some centres unmarked)
12

## Task Given the entry O=C1CCC(Nc2ccc3c(c2)OCC32CCN(C[C@H]3CC[C@@H](OC4CCN(c5ccc([C@@H]6c7ccc(O)cc7CC[C@@H]6c6ccccc6)cc5)CC4)CC3)CC2)C(=O)N1 (some centres unmarked) , report its measured Degradation rate of ERα in MCF-7 cells (%).
## Result 29

## Task Given the entry COc1cc2c(cc1C(=O)N[C@H]1CCC(=O)NC1=O)N(C)C[C@H]1CN(CC3CCC(OC4CCN(c5ccc([C@@H]6c7ccc(O)cc7CC[C@@H]6c6ccccc6)cc5)CC4)CC3)CCN21 (some centres unmarked) , report its measured Degradation rate of ERα in MCF-7 cells (%).
## Result -12

## Task Given the entry O=C1CCC(N2Cc3c(ccc4c3OCC43CCC4(CCN(C5CCN(c6ccc([C@@H]7c8ccc(O)cc8CC[C@@H]7c7ccccc7)cc6)CC5)CC4)CC3)C2=O)C(=O)N1 (some centres unmarked) , report its measured Degradation rate of ERα in MCF-7 cells (%).
## Result 42

## Task Given the entry Cn1c(=O)n(C2CCC(=O)NC2=O)c2cc3c(cc21)C1(CCN(C[C@H]2CC[C@@H](OC4CCN(c5ccc([C@@H]6c7ccc(O)cc7CC[C@@H]6c6ccccc6)cc5)CC4)CC2)CC1)CO3 (some centres unmarked) , report its measured Degradation rate of ERα in MCF-7 cells (%).
## Result 35

## Task Given the entry O=C1CCC(N2Cc3c(ccc4c3OCC43CCC4(CC3)CN(CC3CCN(c5ccc([C@@H]6c7ccc(O)cc7CC[C@@H]6c6ccccc6)cc5)CC3)C4)C2=O)C(=O)N1 (some centres unmarked) , report its measured Degradation rate of ERα in MCF-7 cells (%).
## Result 26

----------
Target: ERα (Homo sapiens)
Assay: ERα degradation in MCF-7 cells (Western blot)
Type: cell-based
Design: host or cells: MCF-7
Conditions: 10nM, 4 hours
Each entry below lists one item and its recorded Degradation rate of ERα in MCF-7 cells (%) value.
Quick note: give the figure in %, leave out the unit.

Observe how each entry below is paired with its result.
C[C@@H]1Cc2cc(O)ccc2C(c2c(F)cc(N3CCC4(CCC(N5CC6(CCC7(CC6)COc6c7ccc7c6CN(C6CCC(=O)NC6=O)C7=O)C5)CC4)CC3)cc2F)N1CC(F)F (stereo partly shown)
69
C[C@@H]1Cc2cc(O)ccc2C(c2c(F)cc(N3CCC(C(=O)N4CCC(N5CCC6(CC5)COc5c6ccc6c5n(C)c(=O)n6C5CCC(=O)NC5=O)CC4)CC3)cc2F)N1CC(F)F (stereo partly shown)
14
O=C1CCC(Nc2ccc3c(c2)OC[C@@H]2CN(C4CCC5(CC4)CN(c4ccc([C@@H]6c7ccc(O)cc7CC[C@@H]6c6ccccc6)cc4)C5)CCN32)C(=O)N1 (stereo partly shown)
-11

Here's the next entry for you.
## Task Given the entry Cn1c(=O)n(C2CCC(=O)NC2=O)c2cc3c(cc21)C1(CCN(C2CCC4(CC2)CN(c2ccc([C@@H]5c6ccc(O)cc6CC[C@@H]5c5ccccc5)cc2)C4)CC1)CO3 (stereo partly shown) , report its measured Degradation rate of ERα in MCF-7 cells (%).
## Result 18

----------
Biological target: ERα (Homo sapiens)
Test: ERα degradation in MCF-7 cells (Western blot)
Assay type: cell-based
Design: host or cells: MCF-7
Details: 1nM, 4 hours
quantity: Degradation rate of ERα in MCF-7 cells (%)
Quick note: give the figure in %, leave out the unit.

O=C1CCC(Nc2ccc3c(c2)OC[C@@H]2CN(C4CC5(CCN(c6ccc([C@@H]7c8ccc(O)cc8CC[C@@H]7c7ccccc7)cc6)CC5)C4)CCN32)C(=O)N1 (stereo partly drawn)
6
O=C1CC[C@H](NC(=O)c2ccc3c(c2F)OCC32CCN(C3CCC4(CC3)CCN(c3ccc([C@@H]5c6ccc(O)cc6CC[C@@H]5c5ccccc5)cc3)CC4)CC2)C(=O)N1
-13
O=C1CC[C@H](NC(=O)c2ccc3c(c2F)OCC32CCN(CC3CCN(c4ccc([C@@H]5c6ccc(O)cc6CC[C@@H]5c5ccccc5)cc4)CC3)CC2)C(=O)N1
-20
Cn1c(=O)n(C2CCC(=O)NC2=O)c2ccc3c(c21)OCC31CCN(C2CC3(C2)CN(c2ccc([C@@H]4c5ccc(O)cc5CC[C@@H]4c4ccccc4)cc2)C3)CC1 (stereo partly drawn)
33
O=C1CCC(Nc2ccc3c(c2)OC2(CC3)CN(C[C@H]3CC[C@@H](OC4CCN(c5ccc([C@@H]6c7ccc(O)cc7CC[C@@H]6c6ccccc6)cc5)CC4)CC3)C2)C(=O)N1 (stereo partly drawn)
-5

## Task Given the entry O=C1CC[C@H](NC(=O)c2cc3c(cc2F)N2CCN(C[C@H]4CC[C@@H](OC5CCN(c6ccc([C@@H]7c8ccc(O)cc8CC[C@@H]7c7ccccc7)cc6)CC5)CC4)C[C@@H]2CO3)C(=O)N1 , report its measured Degradation rate of ERα in MCF-7 cells (%).
## Result 28

## Task Given the entry Cn1c(=O)n(C2CCC(=O)NC2=O)c2cc3c(cc21)C1(CCN(CC2CCC4(CC2)CN(c2ccc([C@@H]5c6ccc(O)cc6CC[C@@H]5c5ccccc5)cc2)C4)CC1)CO3 (stereo partly drawn) , report its measured Degradation rate of ERα in MCF-7 cells (%).
## Result 9

## Task Given the entry CN(C(=O)CN1CCC2(CC1)CCC1(CC2)COc2c1ccc1c2CN(C2CCC(=O)NC2=O)C1=O)C1CCC2(CC1)CN(c1ccc([C@@H]3c4ccc(O)cc4CC[C@@H]3c3ccccc3)cc1)C2 (stereo partly drawn) , report its measured Degradation rate of ERα in MCF-7 cells (%).
## Result 5

## Task Given the entry Cn1c(=O)n(C2CCC(=O)NC2=O)c2ccc3c(c21)OCC31CCN(C[C@H]2CC[C@@H](OC3CCN(c4ccc([C@@H]5c6ccc(O)cc6CC[C@@H]5c5ccccc5)cc4)CC3)CC2)CC1 (stereo partly drawn) , report its measured Degradation rate of ERα in MCF-7 cells (%).
## Result 50
